system: Astrocyte; assay: Cytotoxicity against Wistar rat astrocytes assessed as cell growth inhibition at 100 uM measured after 72 hrs by SRB assay; assay type: cell-based
experimental readout: Activity

Examples with their reported Activity follow.
[[record]]
molecule = "Cc1ccc(N2C(=O)CC(Sc3ncccc3C(=O)O)C2=O)cc1Cl (stereo not given)"
experimental_readout = "Activity"
experimental_value = "Non-Toxic"

[[record]]
molecule = "Cc1ccc(S(=O)(=O)CC(=O)c2cccc([N+](=O)[O-])c2)cc1"
experimental_readout = "Activity"
experimental_value = "Non-Toxic"

[[record]]
molecule = "Cn1nnc2c(C(N)=O)ncn2c1=O [TEMOZOLOMIDE]"
experimental_readout = "Activity"
experimental_value = "Non-Toxic"

[[record]]
molecule = "Cc1no[n+]([O-])c1C(=O)c1no[n+]([O-])c1C(=O)c1no[n+]([O-])c1C"
experimental_readout = "Activity"
experimental_value = "Non-Toxic"


Kindly consider the entry below.
// sample `Cc1nonc1C(=O)c1no[n+]([O-])c1C(=O)c1nonc1C` , its Activity was Non-Toxic

All figures here come from ChEMBL document CHEMBL4765251.
